The entries below are paired with their reported log10 EC50.
Subject Of Test: UniProt Q14833
Method Summary: mGluR4 potentiation assay (activity table; fluorescence plate reader, compound then EC20 agonist)
Condition Info: potentiation of mGluR4; species of receptor not given
Reported Endpoint: log10 EC50 (log10 of the value in nM)

Compound | log10 EC50
O=C(Nc1ccc(N2S(=O)(=O)c3ccccc3S2(=O)=O)cc1)C1CCCCC1 | 2.11
O=C(Nc1ccc(N2S(=O)(=O)c3ccccc3S2(=O)=O)cc1)c1ccccc1 | 2.31
O=C(Nc1ccccn1)c1ccc(N2S(=O)(=O)c3ccccc3S2(=O)=O)cc1 | 2.05
O=C(Nc1ccc(N2S(=O)(=O)c3ccccc3S2(=O)=O)cc1)c1ccccn1 | 1.58
O=C(Nc1ccc(N2S(=O)(=O)c3ccccc3S2(=O)=O)cc1)c1ncccc1F | 1.70
O=C(Nc1ccc(N2S(=O)(=O)c3ccccc3S2(=O)=O)cc1)c1cscn1 | 1.84
O=C(Nc1ccc(N2S(=O)(=O)c3ccccc3S2(=O)=O)cc1)c1ccco1 | 1.70
O=S1(=O)c2ccccc2S(=O)(=O)N1c1ccc(NCc2ccccn2)cc1 | 3.33
O=C(Nc1ccc(N2S(=O)(=O)c3ccccc3S2(=O)=O)cc1F)c1ccco1 | 3.96
O=C(Nc1ccc(N2S(=O)(=O)c3ccccc3S2(=O)=O)cc1)c1ncc(F)cc1F | 3.22
O=C(Nc1ccc(N2S(=O)(=O)c3ccccc3S2(=O)=O)cc1)c1nccs1 | 2.15
O=C(Nc1ccc(N2S(=O)(=O)c3ccccc3S2(=O)=O)cc1)c1cccc(F)n1 | 2.25
O=C(Nc1ccc(N2S(=O)(=O)c3ccccc3S2(=O)=O)cc1F)c1ccccn1 | 2.87
O=S1(=O)c2ccccc2S(=O)(=O)N1c1ccc(NC2(c3ccccn3)CC2)cc1 | 2.13
O=S1(=O)c2ccccc2S(=O)(=O)N1c1ccc(Nc2ccccn2)nc1 | 3.74
O=C(Nc1ccc(F)cn1)c1ccc(N2S(=O)(=O)c3ccccc3S2(=O)=O)cc1 | 2.43
O=C(Nc1ccc(N2S(=O)(=O)c3ccccc3S2(=O)=O)cc1)c1ccncn1 | 2.46
O=C(Nc1ccc(N2S(=O)(=O)c3ccccc3S2(=O)=O)cc1)C1CCCCO1 (stereo not drawn) | 2.96

###

Method Summary: intraperitoneal pharmacokinetics in male SD rats (plasma and brain)
Assay type: in vivo, rat
Condition Info: rat, 10 mg/kg ip, brain, read-out: Tmax Brain
Reported Endpoint: Tmax (h)

Compound | Measured Number
O=C(Nc1ccc(N2S(=O)(=O)c3ccccc3S2(=O)=O)cc1)c1ccccc1 [drawing 139] | 1
O=C(Nc1ccc(N2S(=O)(=O)c3ccccc3S2(=O)=O)cc1)c1ccco1 [drawing 140] | 1
O=C(Nc1ccc(N2S(=O)(=O)c3ccccc3S2(=O)=O)cc1)C1CCCCC1 [drawing 138] | 0.5

###

The entries below are paired with their reported % GluMax.
Subject Of Test: UniProt Q14833
Method Summary: mGluR4 potentiation assay (activity table; fluorescence plate reader, compound then EC20 agonist)
Format: cell-based
Condition Info: maximum extent of potentiation, % GluMax

Structure Smiles String | % GluMax (%)
O=S1(=O)c2ccccc2S(=O)(=O)N1c1ccc(NC2(c3ccccn3)CC2)cc1 | 165
O=C(Nc1ccc(F)cn1)c1ccc(N2S(=O)(=O)c3ccccc3S2(=O)=O)cc1 | 84
O=C(Nc1ccc(N2S(=O)(=O)c3ccccc3S2(=O)=O)cc1)C1CCCCC1 | 96
O=C(Nc1ccc(N2S(=O)(=O)c3ccccc3S2(=O)=O)cc1F)c1ccccn1 | 62

###

The entries below are paired with their reported % GluMax.
Subject Of Test: UniProtKB Q14833
Method Summary: mGluR4 potentiation assay (activity table; fluorescence plate reader, compound then EC20 agonist)
Format: cell-based
Condition Info: maximum extent of potentiation, % GluMax

Compound | Subject Of Test | % GluMax
O=S1(=O)c2ccccc2S(=O)(=O)N1c1ccc(Nc2ccccn2)nc1 [Example 18] | UniProtKB Q14833 | 73%
O=C(Nc1ccc(N2S(=O)(=O)c3ccccc3S2(=O)=O)cc1)c1ccccc1 [Example 1] | UniProtKB Q14833 | 146%
O=C(Nc1ccc(N2S(=O)(=O)c3ccccc3S2(=O)=O)cc1)c1cscn1 [Example 10] | UniProtKB Q14833 | 231%
O=C(Nc1ccc(N2S(=O)(=O)c3ccccc3S2(=O)=O)cc1)c1ccco1 [Example 2] | UniProtKB Q14833 | 284%
O=S1(=O)c2ccccc2S(=O)(=O)N1c1ccc(NCc2ccccn2)cc1 [Example 16] | UniProtKB Q14833 | 161%
O=C(Nc1ccc(N2S(=O)(=O)c3ccccc3S2(=O)=O)cc1)c1ncc(F)cc1F [Example 11] | UniProtKB Q14833 | 195%

###

The entries below are paired with their reported CL/F.
Method Summary: intraperitoneal pharmacokinetics in male SD rats (plasma and brain)
Assay type: in vivo, rat
Condition Info: rat, plasma, 10 mg/kg ip

Compound | CL/F / mL/min/kg
O=C(Nc1ccc(N2S(=O)(=O)c3ccccc3S2(=O)=O)cc1)C1CCCCC1 [drawing 138] | 46.7
O=C(Nc1ccc(N2S(=O)(=O)c3ccccc3S2(=O)=O)cc1)c1ccco1 [drawing 140] | 7.16
O=C(Nc1ccc(N2S(=O)(=O)c3ccccc3S2(=O)=O)cc1)c1ccccc1 [drawing 139] | 51.2

Attribution: patent US8658650B2
